target-or-system: CYP3A4/5 (Homo sapiens, UniProt P08684)
Sequence (P08684 2-503): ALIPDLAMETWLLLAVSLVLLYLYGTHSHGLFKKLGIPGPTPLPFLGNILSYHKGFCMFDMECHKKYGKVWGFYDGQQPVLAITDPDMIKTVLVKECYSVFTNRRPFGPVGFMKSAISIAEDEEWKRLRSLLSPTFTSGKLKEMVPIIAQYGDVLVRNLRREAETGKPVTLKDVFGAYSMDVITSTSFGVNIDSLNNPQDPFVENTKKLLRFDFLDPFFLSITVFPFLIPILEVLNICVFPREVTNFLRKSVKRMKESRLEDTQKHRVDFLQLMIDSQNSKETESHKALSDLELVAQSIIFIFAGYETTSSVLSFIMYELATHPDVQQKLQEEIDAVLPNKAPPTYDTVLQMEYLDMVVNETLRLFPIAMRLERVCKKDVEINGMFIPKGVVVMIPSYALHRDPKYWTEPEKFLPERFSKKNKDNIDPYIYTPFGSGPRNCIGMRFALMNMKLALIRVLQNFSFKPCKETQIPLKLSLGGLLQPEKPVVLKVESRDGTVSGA
experiment: in vitro
condition-set: liver microsomes, pH 7.4, probe midazolam (2 microM)
metric-name: IC50 at 10 min (µM)
Express it in µM; write the number only.

I have this compound here, Br.CC(=O)c1ccc(C2NCc3c(Cl)cccc3-n3cccc32)cc1 (stereo not drawn) [drawing 96] , and I need its recorded IC50 at 10 min. 5.01

I have this compound here, CCc1ccc(C2NCc3ccc(Cl)cc3-n3cccc32)cc1 (stereo not drawn) , and I need its recorded IC50 at 10 min. 6.31

* * *

I'd be grateful if you could share measured IC50 for these entries.
Test system: Cryptococcus neoformans B66663
experiment: Antifungal activity in vitro (resazurin susceptibility screen), Inf. F
Assay type: cell-based
condition-set: Cryptococcus neoformans, B66663, Cryptococcus neoformans B66663; 37 °C, 24 hours, resa time 4 hours; read-out: Inf. F pIC50 (converted)
Express it in µM; write the number only.

I have this compound here, `CC(=O)c1ccc(C2=NCc3c(Cl)cc(Cl)cc3-n3cccc32)cc1` , and I need its recorded IC50. 10

I have this compound here, `CC(=O)c1ccc(C2=NCc3c(F)cc(F)cc3-n3cccc32)cc1` , and I need its recorded IC50. 10

I have this compound here, OCCc1ccc(C2NCc3c(Cl)cc(Cl)cc3-n3cccc32)cc1 (centres unmarked) , and I need its recorded IC50. 31.6

I have this compound here, `CC(=O)c1ccc(C2=NCc3ccc(Cl)cc3-n3cccc32)cc1` , and I need its recorded IC50. 1.58
